- subjectOfTest: PrP^Sc (Mus musculus)
- Format: binding
- Parameters: key: −: Visually evaluated relative signal intensity; +/−: Visually evaluated relative signal intensity; +: Visually evaluated relative signal intensity; ++: Visually evaluated relative signal intensity; +++: Visually evaluated relative signal intensity; ++++: Visually evaluated relative signal intensity; +++++: Visually evaluated relative signal intensity
measuredAttribute: Western Blot

(GGG)RPMIHFGNDWEDRYYRENMYR(GG)C [SEQ ID NO: 76] = −
QWNKPSKPKTNLKHV(GGG) [SEQ ID NO: 77] = ++
(GGG)QWNKASKAKTN [SEQ ID NO: 95] = −
(GGG)KKRAKAGG [SEQ ID NO: 98] = +
(GGG)QWNKPSKPKTN [SEQ ID NO: 14] = +++
(GGGG)C(GG)GGWGQGGGTHNQWNKPSKPKTNLKHV(GGGG)C [SEQ ID NO: 35] = +
GGWGQGGGTHNQWNKPSKPKTN [SEQ ID NO: 53] = +
GGWGQGGGTHNQWNKPSKPKTNLKHV(GGGG) [SEQ ID NO: 37] = +
(GGG)KKRPKPGGGQWNKPSKPKTN [SEQ ID NO: 81] = +
(GGG)KKRPKPGGGKKRPKPGG [SEQ ID NO: 72] = +
DKDKGGVGALAGAAVAAGGDKDK [SEQ ID NO: 88] = −
(GGG)NKPSKPK [SEQ ID NO: 79] = −

###

- subjectOfTest: PrP^Sc (Mus musculus, UniProt P04925)
- Format: binding
- Design: key: −: Visually evaluated relative signal intensity; +/−: Visually evaluated relative signal intensity; +: Visually evaluated relative signal intensity; ++: Visually evaluated relative signal intensity; +++: Visually evaluated relative signal intensity; ++++: Visually evaluated relative signal intensity; +++++: Visually evaluated relative signal intensity
measuredAttribute: Western Blot

QWNKPSKPKTN(GGG) [SEQ ID NO: 50] = +
(GGG)KKKKKKKK (GGGKKKKKKKK) [SEQ ID NO: 85] = +^3
(GGG)QWNKASKPKTN [SEQ ID NO: 99] = +/−
KKKAGAAAAGAVVGGLGGYMLGSAMKKK [SEQ ID NO: 84] = +
RPMIHFGNDWEDRYYRENMYR(GGG) [SEQ ID NO: 44] = −
(GGG)KPSKPK [SEQ ID NO: 80] = −

###

- subjectOfTest: PrP^Sc (Mus musculus, UniProt P04925)
- Type: binding
- Design: key: −: Visually evaluated relative signal intensity; +/−: Visually evaluated relative signal intensity; +: Visually evaluated relative signal intensity; ++: Visually evaluated relative signal intensity; +++: Visually evaluated relative signal intensity; ++++: Visually evaluated relative signal intensity; +++++: Visually evaluated relative signal intensity
measuredAttribute: Western Blot

(GGG)GPKRKGPK [SEQ ID NO: 73] = +
(GGG)KKRPKPGGWNTGGSRYPGQGS [SEQ ID NO: 66] = +
(GGG)NNKQSPWPTKK [SEQ ID NO: 87] = −
(GGG)KKRPKPGG [SEQ ID NO: 68] = +++
(GGG)KKRPKPGGWNTGG [SEQ ID NO: 67] = ++
DDDAGAAAAGAVVGGLGGYMLGSAMDDD [SEQ ID NO: 86] = −
(KKK)AGAAAAGAVVGGLGG [SEQ ID NO: 65] = ++
(GGG)KKRPAPGG [SEQ ID NO: 107] = +
GGTHNQWNKPSKPKTN [SEQ ID NO: 54] = +
(GGGG)GGWGQGGGTHNQWNKPSKPKTNLKHV [SEQ ID NO: 36] = +
PHGGGWGQ [SEQ ID NO: 71] = −
(KKK)AGAAAAGAVVGGLGGYMLGSAM [SEQ ID NO: 57] = +
PHGGGWGQHGGSWGQPHGGSWGQ [SEQ ID NO: 69] = −
(GGG)KARPKPGG [SEQ ID NO: 105] = +
PHGGGWGQPHGGSWGQ [SEQ ID NO: 70] = −
(GGG)KKAPKPGG [SEQ ID NO: 106] = +
(GGG)QWNKASKPKTN [SEQ ID NO: 90] = −
C(GG)GGWGQGGGTHNQWNKPSKPKTNLKHV(GGGG)C [SEQ ID NO: 40] = +
DDDAGAAAAGAVVGGLGGYMLGSAM [SEQ ID NO: 83] = −
KKKAGAAAAGAVVGGLGGYMLGSAMDDD [SEQ ID NO: 82] = −
(GGG)KKAPKAGG [SEQ ID NO: 108] = +
QWNKPSKPKTN(GGG)QWNKPSKPKTN [SEQ ID NO: 51] = +++
(GGG)WNKPSKPKT [SEQ ID NO: 75] = −
(GG)C(GGG)RPMIHFGNDWEDRYYRENMYR(GGG)C [SEQ ID NO: 46] = +
(GGG)AKRPKPGG [SEQ ID NO: 104] = +
